Target of assay: Mucosa-associated lymphoid tissue lymphoma translocation protein 1 (Homo sapiens, UniProt Q9UDY8)
Sequence (Q9UDY8 whole entry): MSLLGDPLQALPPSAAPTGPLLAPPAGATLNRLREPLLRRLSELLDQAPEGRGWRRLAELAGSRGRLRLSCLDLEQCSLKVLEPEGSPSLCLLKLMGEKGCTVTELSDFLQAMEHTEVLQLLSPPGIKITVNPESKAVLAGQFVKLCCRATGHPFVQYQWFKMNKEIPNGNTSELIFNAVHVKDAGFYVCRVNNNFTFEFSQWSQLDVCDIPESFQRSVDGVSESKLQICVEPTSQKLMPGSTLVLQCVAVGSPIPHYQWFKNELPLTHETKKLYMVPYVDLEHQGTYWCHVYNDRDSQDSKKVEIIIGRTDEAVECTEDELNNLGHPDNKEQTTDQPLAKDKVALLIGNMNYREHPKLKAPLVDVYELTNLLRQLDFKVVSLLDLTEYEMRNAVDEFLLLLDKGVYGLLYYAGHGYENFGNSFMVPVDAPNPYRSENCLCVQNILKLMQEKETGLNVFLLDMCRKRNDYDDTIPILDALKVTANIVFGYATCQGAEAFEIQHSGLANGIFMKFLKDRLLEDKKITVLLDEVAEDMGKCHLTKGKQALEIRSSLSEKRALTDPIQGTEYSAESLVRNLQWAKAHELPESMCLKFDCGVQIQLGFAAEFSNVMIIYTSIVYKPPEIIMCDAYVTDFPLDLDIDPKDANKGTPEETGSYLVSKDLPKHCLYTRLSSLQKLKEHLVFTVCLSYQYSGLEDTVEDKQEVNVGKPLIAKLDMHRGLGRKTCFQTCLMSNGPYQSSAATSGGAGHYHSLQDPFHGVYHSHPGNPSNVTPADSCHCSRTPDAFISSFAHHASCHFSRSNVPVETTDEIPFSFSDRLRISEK
Assay text: Inhibition of N-terminal his-tagged GCN4 leucine zipper fused human MALT1 […] expressed in Escherichia coli using Ac-LVSR-AMC as substrate by HTS assay
pIC50: −log10 of the molar value.
Readout kind: pIC50

Some molecules with recorded pIC50:
O=C(Nc1cc(Cl)cc(Cl)c1)c1sc(=S)n2c1[nH]c(=O)c1ccc(Cl)cc12
5.13
COc1cccc(CNC(=O)c2sc(=S)n3c2[nH]c(=O)c2cc(Br)ccc23)c1
4.89
COc1ccc(OC)c(NC(=O)c2sc(=S)n3c2[nH]c(=O)c2cc(F)c(F)cc23)c1
4.94

P: CCc1ccccc1NC(=O)c1sc(=S)n2c1[nH]c(=O)c1cc(Br)ccc12
Q: Cc1ccc(NC(=O)c2sc(=S)n3c2[nH]c(=O)c2cc(C)ccc23)c(C)c1
R: CC(C)c1ccc(S(=O)(=O)Nc2ccc(N3CCC(Cc4ccccc4)CC3)cc2C(=O)O)cc1
**Q:** Could you please order the items by pIC50, going from the lowest number to the highest? // rank by listing labels in the order requested
**A:** R, Q, P
(R: 4.91, Q: 5.15, P: 5.36)

I: O=C(Nc1cc(Cl)cc(Cl)c1)c1sc(=S)n2c1[nH]c(=O)c1cc(Br)ccc12
II: Cc1ccccc1C1CCN(c2ccc(NC(=O)c3ccc(Cl)cc3)c(C(=O)O)c2)C1 (centres undefined)
**Q:** Between I and II , which one has the lower reported pIC50 value? Label of pick, please.
**A:** II
(II: 4.92, I: 5.48)

I: Cc1ccc(S(=O)(=O)C2=C(O)C(=O)N(Cc3ccc(F)cc3)C2c2ccc(C(C)C)cc2)cc1 (centres undefined)
II: O=C(NCc1ccco1)c1sc(=S)n2c1[nH]c(=O)c1cc(Br)ccc12
III: O=C(NCc1ccccc1Cl)c1sc(=S)n2c1[nH]c(=O)c1cc(Br)ccc12
**Q:** Sequence the entries by pIC50, beginning with the highest number. // rank by listing labels in the order requested
**A:** III, II, I

P: O=C(Nc1cccc(F)c1)c1sc(=S)n2c1[nH]c(=O)c1ccc(Cl)cc12
Q: Cc1ccccc1NC(=O)c1sc(=S)n2c1[nH]c(=O)c1ccc(Cl)cc12
R: Cc1ccc2c(c1)c(=O)[nH]c1c(C(=O)Nc3cc(Cl)ccc3C)sc(=S)n12
**Q:** Could you please order the items by pIC50, going from the lowest number to the highest? // rank by listing labels in the order requested
**A:** Q, P, R
(Q: 4.96, P: 5.26, R: 5.47)

A: COC(=O)c1ccc2c(=O)[nH]c3c(C(=O)Nc4ccc(Cl)c(Cl)c4)sc(=S)n3c2c1
B: O=C(NCc1cccs1)c1sc(=S)n2c1[nH]c(=O)c1cc(Br)ccc12
C: O=C(O)c1cccc(NC(=O)c2sc(=S)n3c2[nH]c(=O)c2cc(Br)ccc23)c1
**Q:** Could you please order the items by pIC50, going from the lowest number to the highest? // rank by listing labels in the order requested
**A:** C, A, B
(C: 4.83, A: 5.16, B: 5.39)

A: COc1ccc(OC)c(NC(=O)c2sc(=S)n(-c3cccc(Br)c3)c2NC(=O)CCl)c1
B: COc1cc2c(=O)[nH]c3c(C(=O)Nc4cc(Cl)cc(Cl)c4)sc(=S)n3c2cc1OC
**Q:** Recorded pIC50 values differ for A and B ; which one is higher? Label of pick, please.
**A:** A
(A: 5.34, B: 4.85)

1: O=C(Nc1ccc([N+](=O)[O-])cc1)c1sc(=S)n2c1[nH]c(=O)c1ccccc12
2: COC(=O)c1ccc2c(=O)[nH]c3c(C(=O)Nc4ccccc4C)sc(=S)n3c2c1
3: COc1ccc(OC)c(NC(=O)c2sc(=S)n(-c3cccc(C(F)(F)F)c3)c2NC(=O)CCl)c1
**Q:** Sequence the entries by pIC50, beginning with the highest number. // rank by listing labels in the order requested
**A:** 3, 1, 2
(3: 5.49, 1: 5.17, 2: 4.84)

A: COc1ccc(OC)c(NC(=O)c2sc(=S)n3c2[nH]c(=O)c2cc(Br)ccc23)c1
B: COc1cccc(CNC(=O)c2sc(=S)n3c2[nH]c(=O)c2cc(Cl)ccc23)c1
**Q:** Recorded pIC50 values differ for A and B ; which one is higher? Label of pick, please.
**A:** A
(A: 5.16, B: 4.89)
